Test system: NCI-H322M lung
Test: NCI-60 one-dose screen, 48 h (100 = growth as untreated, 0 = no growth, -100 = all killed)
Settings: 10 µM unless noted
About 83,000 compounds went through this panel and 20% of them were active in at least one assay; those are over-represented in the sample as a whole.
# growth listing for each entry below

{"compound": "CCCCC(=O)Nc1nc2ccc(SCCC)cc2s1", "growth / %": 82.4}
{"compound": "NC(CCCC(N)C(=O)c1ccccc1)C(=O)O (stereo unspecified)", "growth / %": 87.7}
{"compound": "O=c1c2ccccc2sc2c(NCCCNCCO)nc3ccccc3c12", "growth / %": 65.8}
{"compound": "COc1ccc(-c2c(C#N)cnc(N)c2-c2nc3cc(C)c(C)cc3[nH]2)cc1", "growth / %": 38.2}
{"compound": "Cc1nc(N)nc(SCc2ccccc2)c1Br", "growth / %": 70.3}
{"compound": "Nc1c(C(=O)O)[nH]c(=O)[nH]c1=O", "growth / %": 102}
{"compound": "Cn1cnc([N+](=O)[O-])c1N1c2ccncc2Sc2ccncc21", "growth / %": 110}
{"compound": "CCNc1cc(S(=O)(=O)O)ccc1C", "growth / %": 112}
{"compound": "O=C(NCCNc1nccc(-c2c(-c3cccc(O)c3)nc3sccn23)n1)c1ccccc1O", "growth / %": 72.3}
{"compound": "C=C1C(=O)O[C@H]2[C@H]1CC/C(COC(=O)c1ccc(C#N)cc1)=C\\CC[C@@]1(C)O[C@@H]21", "growth / %": 68.1}
{"compound": "CCCCNC(=O)Oc1ccc(/C(=C(/CC)Cc2ccccc2)c2ccc(OCCCN(C)C)cc2)cc1", "growth / %": 83.1}

Source listed as PubChem BioAssay (NCI).
